Tested on: L1210 leukemia ip in BDF1 mice, survival T/C
ASSAY_COMMENT: NCI In Vivo Anticancer Drug Screen. Data for tumor model L1210 Leukemia (intraperitoneal) in B6D2F1 (BDF1) mice
TEST_SETTINGS: endpoint: mean survival time; dose: 100.0 mg/kg/injection; schedule: Q04DX002 (ip); vehicle: saline with Tween-80; higher = longer survival
Inconclusive results and toxic doses are left out.
PARAMETER: T/C

Example entries begin here.
Req: Requested field: T/C. Item: `CCCS(=O)(=O)N1CCCC1`
Resp: 99 % of control

Req: Then what about the molecule `[Cl][Sb]([Cl])([c]1ccccc1)([c]1ccccc1)[c]1ccccc1` ?
Resp: 101 % of control

Req: Please do the same for `NC(=O)N/N=C/c1ccc[n+]([O-])c1` as well.
Resp: 86 % of control

Req: // repeat for `N#CCC(=O)N/N=C/c1cc(Cl)cc(Cl)c1O` and report
Resp: 108 % of control

Req: Similarly, `CC(=O)OCCc1ccc([N+](=O)[O-])cc1` ?
Resp: 97 % of control

Req: What would you report for `NC(=O)NCc1ccc(CNC(N)=O)cc1` ?
Resp: 98 % of control

Req: Now try O=C1c2ccccc2C(=O)N1NS(=O)c1ccccc1 (stereo not drawn) .
Resp: 93 % of control

Please examine the following record next.
Req: Quick one: T/C for `COc1cc(/C=C(/C#N)C(N)=O)cc(OC)c1OC` ?
Resp: 97 % of control

----------
System: L1210 leukemia ip in BDF1 mice, survival T/C
ASSAY_COMMENT: NCI In Vivo Anticancer Drug Screen. Data for tumor model L1210 Leukemia (intraperitoneal) in B6D2F1 (BDF1) mice
TEST_SETTINGS: endpoint: mean survival time; dose: 150.0 mg/kg/injection; schedule: Q04DX003 (ip); vehicle: saline; higher = longer survival
Toxic doses and inconclusive results are not listed.
PARAMETER: T/C

Reference set (3 entries):
Req: Which T/C value is on record for Cc1ccc(S(=O)(=O)NC(CO)C(=O)O)cc1 (centres undefined) ?
Resp: 103 % of control

Req: // next record `COc1ccc(C(=O)/C=C/c2ccc(O)cc2)cc1`
Resp: 96 % of control

Req: Queued: `NS(=O)(=O)c1ccc(Br)cc1`
Resp: 105 % of control

---
Req: Which T/C value belongs to `CN(CCSSCCN(C)C(N)=S)C(N)=S` ?
Resp: 87 % of control

----------
Tested on: L1210 leukemia ip in BDF1 mice, survival T/C
ASSAY_COMMENT: NCI In Vivo Anticancer Drug Screen. Data for tumor model L1210 Leukemia (intraperitoneal) in B6D2F1 (BDF1) mice
TEST_SETTINGS: endpoint: mean survival time; dose: 50.0 mg/kg/injection; schedule: Q01DX009 (ip); vehicle: Klucel (hydroxypropylcellulose) (HPC); higher = longer survival
Toxic doses and inconclusive results are not listed. Square brackets hold non-standard residues; d marks the D form. Peptide text beside a SMILES is read from it. * marks the point of attachment. ξ: configuration not given here. ξF = NC(Cc1ccccc1)C(=O)O; Cbz = O=C(OCc1ccccc1)*
PARAMETER: T/C

Req: Any idea what T/C was measured for O=C(CNC(=O)OCc1ccccc1)NC(Cc1ccccc1)C(=O)O (stereo not drawn) (Cbz-Gly-[ξF]-OH) ?
Resp: 95 % of control

Req: Now consider `O=C/C(Br)=C\c1ccccc1` .
Resp: 90 % of control

Req: What do we get for `COc1ccc(CCN2CC(=O)NC(=O)C2)cc1OC` ?
Resp: 96 % of control

----------
System: L1210 leukemia ip in BDF1 mice, survival T/C
ASSAY_COMMENT: NCI In Vivo Anticancer Drug Screen. Data for tumor model L1210 Leukemia (intraperitoneal) in B6D2F1 (BDF1) mice
TEST_SETTINGS: endpoint: mean survival time; dose: 400.0 mg/kg/injection; schedule: Q01DX001 (ip); vehicle: Klucel (hydroxypropylcellulose) (HPC); higher = longer survival
Method: The antitumor activity of compounds was measured in mice bearing transplantable tumors. Survival or tumor size were measured and the results are expressed as the measurement made in the treated group (T) divided by the measurement made in the vehicle treated control group (C). The tumor model used in this assay is L1210 Leukemia (intraperitoneal) in B6D2F1 (BDF1) mice
Inconclusive results and toxic doses are left out.
PARAMETER: T/C

Req: Consider the compound `NC(=O)c1cn[nH]c1N` and give its measured T/C.
Resp: 96 % of control

Req: Another compound to check: `O=C(/C=C\C(Cl)(Cl)Cl)c1ccccc1`
Resp: 97 % of control

Req: Try the compound `CON=C(c1ccc(N(C)C)cc1)c1ccc(N(C)C)cc1`
Resp: 101 % of control

Req: Proceed to CC1(C)OC2OC(C3COC(=O)O3)C(O)C2O1 (stereo unspecified)
Resp: 96 % of control

Req: Further, for CCOc1c(OC)c2c3c(c(-c4c(C)cc5c(C(C)C)c(OCC)c(OC)c6c5c4OC6OC)c(C)cc3c1C(C)C)OC2OC (stereo unspecified) ?
Resp: 100 % of control

Continuing:
Req: Any idea what its T/C is? The compound is O=S(=O)(OCC(O)C1OCOC2COCOC21)c1ccccc1 (stereo unspecified)
Resp: 97 % of control

Req: Do the same for O=C1OC(c2ccccc2)(C2(c3ccccc3)C=C(c3ccccc3)C(=O)O2)C=C1c1ccccc1 (stereo unspecified) please
Resp: 100 % of control

----------
Parameter: T/C. Scope: all listed entries.
System: L1210 leukemia ip in BDF1 mice, survival T/C
ASSAY_COMMENT: NCI In Vivo Anticancer Drug Screen. Data for tumor model L1210 Leukemia (intraperitoneal) in B6D2F1 (BDF1) mice
TEST_SETTINGS: endpoint: mean survival time; dose: 100.0 mg/kg/injection; schedule: Q01DX001 (ip); vehicle: saline; higher = longer survival
Inconclusive results and toxic doses are left out.

Check out these entries, answers already filled in.
Req: Which T/C is listed for CC(SC(C)C(=O)NN)C(=O)NN (stereo not given) ?
Resp: 107 % of control

Req: How about this molecule: `O=C(N/N=C/c1cc(Cl)ccc1O)c1cccc2ccccc12`
Resp: 94 % of control

Req: Queued: `CN(C)c1nc(N)nc(Nc2ccc(Br)cc2)c1N=O`
Resp: 105 % of control

Req: Also need `CC(C)CCC(=O)CCC1CCCCC1` , thanks.
Resp: 92 % of control

Then this molecule:
Req: Field request: T/C | item: `O=C1c2cc(Br)ccc2NC1(c1c[nH]c2ccccc12)c1c[nH]c2ccccc12`
Resp: 100 % of control

----------
Tested on: L1210 leukemia ip in BDF1 mice, survival T/C
ASSAY_COMMENT: NCI In Vivo Anticancer Drug Screen. Data for tumor model L1210 Leukemia (intraperitoneal) in B6D2F1 (BDF1) mice
TEST_SETTINGS: endpoint: mean survival time; dose: 100.0 mg/kg/injection; schedule: Q04DX002 (ip); vehicle: Klucel (hydroxypropylcellulose) (HPC); higher = longer survival
Toxic doses and inconclusive results are not listed.
PARAMETER: T/C

These recorded examples may help you get a feel for the data.
Req: // lookup T/C | system=L1210 leukemia ip in BDF1 mice, survival T/C | key= `COc1ccc(F)cc1CC#N`
Resp: 98 % of control

Req: Try `O=C(COc1ccc(Cl)cc1Cl)Nc1ccc(S(=O)(=O)O)cc1` next.
Resp: 92 % of control

Req: Next up: `O=C(c1ccccc1)C(c1ccccc1)(c1ccccc1)c1ccccc1`
Resp: 97 % of control

Req: Now give it for `COc1cccc(-c2cc3c(OC)ccc(OC)c3[nH]2)c1` too.
Resp: 99 % of control

# context switch: different compound, same T/C
Req: Field: T/C (L1210 leukemia ip in BDF1 mice, survival T/C). Entry: `O=Cc1c(Cl)n(C(=O)c2ccccc2)c2ccccc12`
Resp: 87 % of control

----------
System: L1210 leukemia ip in BDF1 mice, survival T/C
ASSAY_COMMENT: NCI In Vivo Anticancer Drug Screen. Data for tumor model L1210 Leukemia (intraperitoneal) in B6D2F1 (BDF1) mice
TEST_SETTINGS: endpoint: mean survival time; dose: 200.0 mg/kg/injection; schedule: Q04DX003 (ip); vehicle: saline; higher = longer survival
Inconclusive results and toxic doses are left out.
# reported T/C; entries follow

Req: Find the recorded T/C belonging to `O=C(Nc1c(Oc2ccc(Cl)cc2)ccc(Cl)c1S(=O)(=O)O)Nc1c(Oc2ccc(Cl)cc2)ccc(Cl)c1S(=O)(=O)O` and report it.
Resp: 96 % of control

Further cases:
Req: # query: T/C of entry CCCCN1C(=O)C2CCc3ccncc3C2C1=O (centres undefined)
Resp: 97 % of control

Req: And then `NOCc1csc(Nc2ccccc2)n1` , what is it?
Resp: 88 % of control

Req: Could you do the same for `CN(C)CCC#N` , please?
Resp: 100 % of control

Req: Follow-up entry: `NCc1nc(C(=O)O)cs1`
Resp: 112 % of control

Req: Please give the result for `CCO/C=C(/C(=O)OCC)C(=O)C(OCC)OCC` too.
Resp: 97 % of control

Req: Same question for `CN(C)C(=O)Nc1ccc(Cl)cc1` please.
Resp: 98 % of control

Req: Please do the same for COC1(c2ccccc2)ON=C(c2ccccc2)C=C1c1ccccc1 (centres undefined) as well.
Resp: 91 % of control

Req: Now consider `CCOC(=O)c1cc(OC(C)=O)c2c(ccc3cc(OC)ccc32)c1CC` .
Resp: 96 % of control

Req: Try this molecule too: `OCCOCc1ccccc1`
Resp: 98 % of control

Req: Same read-out for CC(C)NCC1CCCO1 (centres undefined) ?
Resp: 94 % of control
